Target: BRD4 BD2 (Homo sapiens, UniProt O60885)
Experiment: AlphaScreen binding assay, BRD4 Bromodomain 2
observable: IC50

In the examples that follow, each entry is paired with its recorded IC50.
Give IC50 for this entry on BRD4 BD2 (Homo sapiens, UniProt O60885): CC(=O)N1c2ccc(-c3cnn(CC4CC4(F)F)c3)cc2N(C(=O)C2CC2)C[C@@H]1C (some centres unmarked) 50 to 500 nM

Tell me its IC50 on BRD4 BD2 (Homo sapiens, UniProt O60885): CC(=O)N1c2ccccc2N(S(=O)(=O)c2ccc(OC(F)(F)F)cc2)C[C@@H]1C > 500 nM

Fill in: IC50 on BRD4 BD2 (Homo sapiens, UniProt O60885), entry CC(=O)N1c2ccc(-c3cnn(CC4CC4(F)F)c3)cc2N(C(=O)OC(C)C)C[C@@H]1C (some centres unmarked) 50 to 500 nM

More entries:
With BRD4 BD2 (Homo sapiens, UniProt O60885) as the test system, provide measured IC50 for this compound: CC(=O)N1c2ccc(-c3ccc(S(C)(=O)=O)cc3)cc2N(C(=O)Nc2ccsc2)C[C@@H]1C 50 to 500 nM

Write down measured IC50 (BRD4 BD2 (Homo sapiens, UniProt O60885)) for this compound. CC(=O)N1c2ccccc2N(C(=O)c2csc(Nc3cccnc3)n2)C[C@@H]1C > 500 nM

Please look at CC(C)OC(=O)N1C[C@H](C)N(C(=O)C2CC2)c2ccc(-c3cnc(N)cn3)cc21 and tell me its recorded IC50 on BRD4 BD2 (Homo sapiens, UniProt O60885). > 500 nM

Send back BRD4 BD2 (Homo sapiens, UniProt O60885) IC50 of CC(=O)N1c2ccccc2N(Cc2cc(C(F)(F)F)cc(C(F)(F)F)c2)C[C@@H]1C only. > 500 nM

Return reported IC50 for target or system BRD4 BD2 (Homo sapiens, UniProt O60885), item CC(=O)N1c2ccc(-c3ccc(S(=O)(=O)C(C)C)cc3)cc2N(C(=O)C2CC2)C[C@@H]1C . 50 to 500 nM

Look up and report IC50, with BRD4 BD2 (Homo sapiens, UniProt O60885) as system, for CC(=O)N1c2ccc(-c3cnn(C4CC4)c3)cc2N(c2nc3ccccc3o2)C[C@@H]1C 50 to 500 nM

Provide the reported IC50 (system: BRD4 BD2 (Homo sapiens, UniProt O60885)) for CC(=O)N1c2ccc(-c3cnn(C4CCCS(=O)(=O)C4)c3)cc2N(C(=O)OC(C)C)C[C@@H]1C (some centres unmarked) 50 to 500 nM

Write IC50 of CC(=O)N1c2ccc(-c3ccc(S(C)(=O)=O)cc3)cc2N(c2nccc(-c3ccccc3)n2)C[C@@H]1C ; system used: BRD4 BD2 (Homo sapiens, UniProt O60885) > 500 nM

Where do the numbers come from? From patent US10703764B2.
